Kindly supply the reported Cmax values for the records listed here.
Assay: Rat 28-day toxicokinetics
Assay type: in vivo
Conditions: male, Sprague Dawley (Crl:CD (SD)IGS BR), plasma, po, 800 mg/kg, Day 1, male
Procedure: In the rat repeated-dose toxicokinetic study, fexinidazole was administered orally by gavage once a day for 28 consecutive days to ten or fifteen Crl:CD (SD)IGS BR rats/sex/group at doses of 50, 200, or 800 mg/kg/day. […] Systemic exposure to fexinidazole and its sulfoxide and sulfone metabolites was evaluated in three additional animals/sex/group. […] ULOQ Upper limit of quantification […] 24 hours post dosing was calculated and denoted AUC0-24. […]
The reply should be a number in ng/mL, with the unit left off.

(Q) Item under review: Cn1c([N+](=O)[O-])cnc1COc1ccc([S+](C)[O-])cc1 (stereo not drawn) [Fexinidazole sulfoxide] . Reported Cmax?
(A) 32800

(Q) Item under review: CSc1ccc(OCc2ncc([N+](=O)[O-])n2C)cc1 . Reported Cmax?
(A) 1480

(Q) Item under review: Cn1c([N+](=O)[O-])cnc1COc1ccc(S(C)(=O)=O)cc1 . Reported Cmax?
(A) 40300

----------
assay: Rat 28-day toxicokinetics; assay type: in vivo; settings: female, Sprague-Dawley (Crl:CD (SD)IGS BR), plasma, po, 50 mg/kg/day, Day 28, female, read-out: AUC0-t(last)
experimental-readout: AUC(0-t)

(Q) Item under review: Cn1c([N+](=O)[O-])cnc1COc1ccc(S(C)(=O)=O)cc1 [Fexinidazole sulfone] . Reported AUC(0-t)?
(A) 197 µg·h/mL

----------
assay: Rat 28-day toxicokinetics; assay type: in vivo; conditions: Sprague Dawley (Crl:CD (SD)IGS BR), plasma, po, 800 mg/kg/day, Day 28, male, read-out: AUC within 24 hours post dosing
experimental-readout: AUC (ng·h/mL)
The reply should be a number in ng·h/mL, with the unit left off.

(Q) Item under review: Cn1c([N+](=O)[O-])cnc1COc1ccc([S+](C)[O-])cc1 (centres unmarked) [Fexinidazole sulfoxide] . Reported AUC?
(A) 130000

(Q) Item under review: CSc1ccc(OCc2ncc([N+](=O)[O-])n2C)cc1 [Fexinidazole] . Reported AUC?
(A) 3170

----------
Kindly supply the reported Cmax values for the records listed here.
assay: Dog single-dose IV and oral pharmacokinetics; assay type: in vivo; settings: dog, plasma; fexinidazole 1 mg/kg IV, male Beagle dogs; read-out: Cmax (C0.083 for parent)
The reply should be a number in ng/mL, with the unit left off.

(Q) Item under review: CSc1ccc(OCc2ncc([N+](=O)[O-])n2C)cc1 . Reported Cmax?
(A) 320

(Q) Item under review: Cn1c([N+](=O)[O-])cnc1COc1ccc([S+](C)[O-])cc1 (stereo not drawn) [Fexinidazole sulfoxide] . Reported Cmax?
(A) 763

(Q) Item under review: Cn1c([N+](=O)[O-])cnc1COc1ccc(S(C)(=O)=O)cc1 . Reported Cmax?
(A) 681

----------
assay: Hepatocyte intrinsic clearance and metabolite profile; type: in vitro ADME, human; settings: human
experimental-readout: half-life at 1 µM (min)
The reply should be a number in min, with the unit left off.

(Q) Item under review: CCOc1ccc2ccc(=O)oc2c1 [7-ethoxycoumarin, reference compound] . Reported half-life at 1 µM?
(A) 6.4

(Q) Item under review: CSc1ccc(OCc2ncc([N+](=O)[O-])n2C)cc1 . Reported half-life at 1 µM?
(A) 6.5
